- method_notes: Solubility measurement in various solvents (excess compound, 72 h shaking)
- Format: physicochemical
- experimental_parameters: ethanol
Documented solubility in ethanol across a set of molecules
reported_property: solubility in ethanol

* CCNc1nc(N)c(C#N)c(-c2ccccc2)c1C#N | 5.98 ± 0.230 mg/mL
* Cc1ccc(Nc2nc(N)c(C#N)c(-c3ccccc3)c2C#N)cc1 | 13.82 ± 0.326 mg/mL
* N#Cc1c(N)nc(Nc2ccccc2)c(C#N)c1-c1ccccc1 | 18.56 ± 0.337 mg/mL
* N#Cc1c(N)nc(N)c(C#N)c1-c1ccccc1 | 18.86 ± 0.225 mg/mL

---

Measured solubility in water accompanies every entry in the list below.
- method_notes: Solubility measurement in various solvents (excess compound, 72 h shaking)
- Format: physicochemical
- experimental_parameters: water
reported_property: solubility in water (µg/mL)

- N#Cc1c(N)nc(Nc2ccccc2)c(C#N)c1-c1ccccc1: 580
- N#Cc1c(N)nc(N)c(C#N)c1-c1ccccc1: 990
- CCNc1nc(N)c(C#N)c(-c2ccccc2)c1C#N: 570
- Cc1ccc(Nc2nc(N)c(C#N)c(-c3ccccc3)c2C#N)cc1: 1250
